Provenance of the data: ChEMBL document CHEMBL4431351

- Experimental protocol: Steady state inhibition of Sporosarcina pasteurii CCM 2056 urease using urea as substrate assessed as inhibition constant for final enzyme conformation-inhibitor complex by measuring ammonia levels after 120 mins by phenol-hypochlorite method
So I've got a bunch of molecules here, and I need their Ki values.
Numbers only, in µM.

Take a look at these entries with their results.
query: Could you please provide reported Ki for `COC(=O)[C@@H](CC(C)C)n1[se]c2ccccc2c1=O` ? Thanks!
result: 0.0261

query: Consider the molecule `O=C(O)CCn1[se]c2ccccc2c1=O` . State its measured Ki.
result: 1.21

// moving on: another record for Ki
query: Fill in reported Ki for this entry: `C[C@H](NC(=O)c1ccccc1[Se][Se]c1ccccc1C(=O)N[C@@H](C)C(=O)O)C(=O)O`
result: 14.9
